B1: peptide HD2 (from tick evasin EVA4) / CCL22 (biotinylated, synthetic) (parent)
chain 1: EEDDYTAYAPLTCYFT
chain 2: GPYGANMEDSVCCRDYVRYRLPLRVVKHFYWTSDSCPRPGVVLLTFRDKEICADPRVPWVKMILNKLSQ

# Variants of: B1
# test.settings: with CCL22 (biotinylated, synthetic); scale: log2
Classification field. Basis: enrichment. Definitions: low band (below -9), middle band (-9 to below -7), high band (-7 or more)

Solved cases below.
# residue.string, group
records = [
    ("chain 1 EEDDYTAYAVLTCYFT [chain 1 P10V]", "low band"),
    ("chain 1 EEDDYTAYAALTCYFT [chain 1 P10A]", "middle band"),
    ("chain 1 EECDYTAYAPLTCYFT [chain 1 D3C]", "low band"),
    ("chain 1 EEDTYTAYAPLTCYFT [chain 1 D4T]", "middle band"),
    ("chain 1 EEDGYTAYAPLTCYFT [chain 1 D4G]", "high band"),
    ("chain 1 EEDDYTAKAPLTCYFT [chain 1 Y8K]", "high band"),
]

Request: Which class does chain 1 EEQDYTAYAPLTCYFT [chain 1 D3Q] fall in?
Result: high band

Request: Which class does chain 1 EEDDYTAEAPLTCYFT [chain 1 Y8E] fall in?
Result: high band

Request: Which class does chain 1 EEDDYTAYAHLTCYFT [chain 1 P10H] fall in?
Result: middle band

Request: Which class does chain 1 EEDDYTAYAQLTCYFT [chain 1 P10Q] fall in?
Result: high band

Request: Which class does chain 1 EEDDYTAYPPLTCYFT [chain 1 A9P] fall in?
Result: middle band

Just for reference, paper PMC11969024 is where these values come from.
